Numbers sourced from ChEMBL document CHEMBL1201862.

- System: Hs-578T
- assay: NCI tumour cell line growth inhibition, 48 h
The source made the active and inactive calls. Cut-off read from the data, not from the text of the source: active = GI50 up to about 1.1 µM and inactive = higher.
Lab note: assign the record to one of class 1 = active, class 0 = inactive

Illustrative cases are given below, each with its answer.
COc1nc(C#CC2CCCCC2)nc(OC)n1
class 0
COCOc1cc(OC)ccc1C/C=N/O
class 0

Data request: Recorded test call requested for CC(=O)Oc1ccc2[nH]c3c(C)c4cccc-4ccc3c2c1
Data returned: class 0

Data request: Recorded test call requested for O=C(O)c1ccc(CI)cc1
Data returned: class 0

Data request: Recorded test call requested for CCOC(=O)c1cc2c(OC(C)=O)ccc(OC(C)=O)c2s1
Data returned: class 0

Data request: Recorded test call requested for O=c1cc(-c2ccc(O)cc2)n(C2CC2)c2ccccc12
Data returned: class 0

Data request: Recorded test call requested for O=C1/C(=C/c2c(Cl)[nH]c3ccccc23)c2ccccc2N1c1ccccc1
Data returned: class 0

Data request: Recorded test call requested for CN(C)c1ccc(C2CC(c3ccc4ccccc4c3O)=NN2)cc1 (stereo not given)
Data returned: class 0

Data request: Recorded test call requested for Nc1nc(-c2ccccc2)c(CC(=O)O)s1
Data returned: class 0

Data request: Recorded test call requested for CNc1ccc(C(=O)CC(O)CCC(C)C2OC(=O)CC(O)CC(=O)CC(O)CC(O)CC(O)CC(O)CC3(O)CC(O)C(C(=O)NCCN(C)C)C(CC(OC4OC(C)C(O)C(NC(=O)CN5CCN(C)CC5)C4O)\C=C/C=C\C=C/C=C/C=C/C=C\C=C/C2C)O3)cc1 (stereo not given)
Data returned: class 0

Data request: Recorded test call requested for Clc1ccc(CSCCc2ccncc2)cc1Cl
Data returned: class 0

Data request: Recorded test call requested for C(/C=N/N=C1NCCCCN1)=N\N=C1NCCCCN1
Data returned: class 0

Data request: Recorded test call requested for O=C1c2ccccc2C(=O)N1CCc1ncc[nH]1
Data returned: class 0

Data request: Recorded test call requested for CC(=O)Nc1nnc(S(=O)(=O)NC(=S)Nc2ccc(Cl)cc2)s1
Data returned: class 0

Data request: Recorded test call requested for O=C1Sc2ccc(Br)cc2C(=O)Sc2ccccc21
Data returned: class 0

Data request: Recorded test call requested for O=c1c(SSc2coc3cc(F)ccc3c2=O)coc2cc(F)ccc12
Data returned: class 0

Data request: Recorded test call requested for CCOC(=O)/C=C(/N=P(c1ccccc1)(c1ccccc1)c1ccccc1)C(F)(F)F
Data returned: class 0

Data request: Recorded test call requested for Brc1ccc(/N=C/C=C(\Nc2ccc(Br)cc2)C23CC4CC(CC(C4)C2)C3)cc1
Data returned: class 0

Data request: Recorded test call requested for c1ccc2[nH]c3nc4ccccc4c-3cc2c1
Data returned: class 1

Data request: Recorded test call requested for CN(C)CCOC1(Cc2ccc(Cl)cc2Cl)CCC(C(C)(C)C)CC1 (stereo not given)
Data returned: class 0

Data request: Recorded test call requested for Cc1ccc2c(c1)nc1n2C(c2c(F)cccc2F)SC1 (stereo not given)
Data returned: class 0

Data request: Recorded test call requested for CCOC(=O)C(NC(=O)c1cccc(Cl)c1)(Nc1ccc(S(=O)(=O)Nc2cc(C)nc(C)n2)cc1)C(F)(F)F (stereo not given)
Data returned: class 0

Data request: Recorded test call requested for C=C1c2nc3ccccc3n2C=C(c2ccc(Cl)cc2)N1c1ccc(OCCN2CCOCC2)cc1
Data returned: class 0

Data request: Recorded test call requested for Cc1ccc([N+](=O)[O-])cc1S(=O)(=O)Nc1ccc(C2=NN(C(=O)c3ccccc3)C(c3ccccc3)C2)cc1 (stereo not given)
Data returned: class 0

Data request: Recorded test call requested for COC(=O)C(Cc1c[nH]c2ccccc12)NC1=Nc2ccncc2S(=O)(=O)N1c1cccc(OC(C)C)c1 (stereo not given)
Data returned: class 0
